Just for reference, the RNAGym collection of RNA variant scans (doi:10.7554/elife.80360) is where these values come from.

B1: HDV Ribozyme (parent)
chain: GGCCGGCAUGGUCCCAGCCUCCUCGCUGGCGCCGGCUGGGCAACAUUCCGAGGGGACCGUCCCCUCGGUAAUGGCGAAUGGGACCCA

variants of: B1; experiment: self-cleavage, relative activity (ratio to wild type); higher = more cleavage; co-transcriptional
Please map values of self-cleavage to classes as shown: group A: < 0.1; group B: ≥ 0.1 and < 0.6; group C: ≥ 0.6

{"columns": ["sequence-entry", "label-class"],
 "data": [
  ["GGCCGGCAUGGUCCCAGCCUCCUCGCUGGCGCCGGCUGGGCAACAUUCCGAGAGGACCGUCCCCUCGGGAAUGGCGAAUGGGACCCA [G53A U69G]", "group C"],
  ["GGCCGGCAUGGUCCCAGCCUCCUCUCUGGCGCCGGCUGGGCAACAUUGCGAGGGGACCGUCCCCUCGGUAAUGGCGAAUGGGACCCA [G25U C48G]", "group A"],
  ["GGCCGGCAUGGUCCCAGCCUCCUCGCUGGCGCCGGCUGGGCAACAUUCCGAGGGGACCGUCCCCUCGGUAAUUGCGAAUGCGACCCA [G73U G81C]", "group B"],
  ["GGCCGGCAUGGUCCCAGCCUCCUCGCUGGCGCCGGCUGGGCAACAUUCCGAGGGGACCGUCCCAUCGGUAAUGGCGAAUGGGACUCA [C64A C85U]", "group C"],
  ["GGCCGGCAUGGUCCCAGCCUUCUCGCUGGCACCGGCUGGGCAACAUUCCGAGGGGACCGUCCCCUCGGUAAUGGCGAAUGGGACCCA [C21U G31A]", "group B"],
  ["GACCGGCAUGGUCCCAGCCUCCUCGCUGGCGCCGGCUGUGCAACAUUCCGAGGGGACCGUCCCCUCGGUAAUGGCGAAUGGGACCCA [G2A G39U]", "group A"],
  ["GGCCGGCUUGGUCCCAGCCUCCUCGCUGGCGCCGGCUGGGCAACAUUCCGAGGGGACCGUCCCCUCGUUAAUGGCGAAUGGGACCCA [A8U G68U]", "group C"],
  ["GGCCGGCAUGGUCCCAGCCUCCUCGCUGGCGCCGGCUGGGCAACGUUCCGAGGGGACCGUCCCCUCGGUAAUGGCGAACGGGACCCA [A45G U79C]", "group C"],
  ["GGCCGGCAUGGUCCCAGCCUCGUCGCUGGGGCCGGCUGGGCAACAUUCCGAGGGGACCGUCCCCUCGGUAAUGGCGAAUGGGACCCA [C22G C30G]", "group A"],
  ["GGCCGGCAGGGUCCCAGCCUCCUCGCUGGCGCGGGCUGGGCAACAUUCCGAGGGGACCGUCCCCUCGGUAAUGGCGAAUGGGACCCA [U9G C33G]", "group B"],
  ["GGCCGGCAUGGUCCCAGCCUCCGCGCUGGCGCCGGCUGGGCAACAUUCCGAGGGGCCCGUCCCCUCGGUAAUGGCGAAUGGGACCCA [U23G A56C]", "group C"],
  ["GGCCGGCAUGGUCCCAGCCUCCUCGCUGGCGCCGGCUGGGCAACAUUCCGCGGGGACCGUCCCCUCGGUAAUGACGAAUGGGACCCA [A51C G74A]", "group B"],
  ["CGCCGGCAGGGUCCCAGCCUCCUCGCUGGCGCCGGCUGGGCAACAUUCCGAGGGGACCGUCCCCUCGGUAAUGGCGAAUGGGACCCA [G1C U9G]", "group B"],
  ["GGCCUGCAUGGUCCCAGCCUCCUCGCUGGCGCCGGGUGGGCAACAUUCCGAGGGGACCGUCCCCUCGGUAAUGGCGAAUGGGACCCA [G5U C36G]", "group B"],
  ["GGCCGGAAUGGUCCCAGCCUCCUCGCUGGCGCCGGCUGGGCAACAUUCCGAGGGGACCGUCCCCUCUGUAAUGGCGAAUGGGACCCA [C7A G67U]", "group B"],
  ["GGCCGGCAUGGUCCCAGCCUCCUCGCUGGCGCCGGCUGGGCAAGAUCCCGAGGGGACCGUCCCCUCGGUAAUGGCGAAUGGGACCCA [C44G U47C]", "group B"],
  ["GGCCGGCAUGGUACCAGCCCCCUCGCUGGCGCCGGCUGGGCAACAUUCCGAGGGGACCGUCCCCUCGGUAAUGGCGAAUGGGACCCA [C13A U20C]", "group A"],
  ["GGACGGCAUUGUCCCAGCCUCCUCGCUGGCGCCGGCUGGGCAACAUUCCGAGGGGACCGUCCCCUCGGUAAUGGCGAAUGGGACCCA [C3A G10U]", "group B"],
  ["GGCCGGCAUGGUCCCAGCCUUCUCGCUGGCGCCGGCUGGGCAACAUUCCGAGGGGACCGUCCCCUCGGUAAUGGCGCAUGGGACCCA [C21U A77C]", "group B"],
  ["GGCCGGCAUGGUCCCAGCCUCCUCGCUGGCGCCGGCUGGCCAACAUUCCGAGGGGACCGUCCCCUCGGUAAUGGCGAAUGGGACCCA [G40C]", "group B"]
]}
